The measured values listed here are drawn from ChEMBL document CHEMBL5356957.

Target: Pancreatic triacylglycerol lipase (Homo sapiens, UniProt P16233)
Sequence (P16233 whole entry): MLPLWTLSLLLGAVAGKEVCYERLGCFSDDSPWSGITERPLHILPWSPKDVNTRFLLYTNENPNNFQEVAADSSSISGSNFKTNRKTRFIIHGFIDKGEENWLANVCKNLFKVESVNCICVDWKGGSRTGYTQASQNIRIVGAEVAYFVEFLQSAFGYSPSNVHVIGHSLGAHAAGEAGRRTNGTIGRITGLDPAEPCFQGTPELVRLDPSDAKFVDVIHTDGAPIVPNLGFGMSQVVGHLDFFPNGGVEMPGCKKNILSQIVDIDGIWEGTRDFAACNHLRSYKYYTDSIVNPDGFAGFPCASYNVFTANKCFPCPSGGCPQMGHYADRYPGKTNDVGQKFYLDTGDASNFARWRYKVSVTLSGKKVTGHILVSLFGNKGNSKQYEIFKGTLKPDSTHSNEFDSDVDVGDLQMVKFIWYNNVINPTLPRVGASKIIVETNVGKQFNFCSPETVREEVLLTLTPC
OBSERVED PROPERTY: IC50

Give the measured IC50 of "O=C1/C(=C/c2ccccc2)Oc2cc(O)cc(O)c21" .
58.8 µM
